system under test: Ba/F3 HER2-YVMA cells (HER2-A775_G776insYVMA) (Homo sapiens, UniProt P04626, DUP772-775, cells depend on it)
Sequence (P04626 with tags, fused parts or gaps DUP772-775): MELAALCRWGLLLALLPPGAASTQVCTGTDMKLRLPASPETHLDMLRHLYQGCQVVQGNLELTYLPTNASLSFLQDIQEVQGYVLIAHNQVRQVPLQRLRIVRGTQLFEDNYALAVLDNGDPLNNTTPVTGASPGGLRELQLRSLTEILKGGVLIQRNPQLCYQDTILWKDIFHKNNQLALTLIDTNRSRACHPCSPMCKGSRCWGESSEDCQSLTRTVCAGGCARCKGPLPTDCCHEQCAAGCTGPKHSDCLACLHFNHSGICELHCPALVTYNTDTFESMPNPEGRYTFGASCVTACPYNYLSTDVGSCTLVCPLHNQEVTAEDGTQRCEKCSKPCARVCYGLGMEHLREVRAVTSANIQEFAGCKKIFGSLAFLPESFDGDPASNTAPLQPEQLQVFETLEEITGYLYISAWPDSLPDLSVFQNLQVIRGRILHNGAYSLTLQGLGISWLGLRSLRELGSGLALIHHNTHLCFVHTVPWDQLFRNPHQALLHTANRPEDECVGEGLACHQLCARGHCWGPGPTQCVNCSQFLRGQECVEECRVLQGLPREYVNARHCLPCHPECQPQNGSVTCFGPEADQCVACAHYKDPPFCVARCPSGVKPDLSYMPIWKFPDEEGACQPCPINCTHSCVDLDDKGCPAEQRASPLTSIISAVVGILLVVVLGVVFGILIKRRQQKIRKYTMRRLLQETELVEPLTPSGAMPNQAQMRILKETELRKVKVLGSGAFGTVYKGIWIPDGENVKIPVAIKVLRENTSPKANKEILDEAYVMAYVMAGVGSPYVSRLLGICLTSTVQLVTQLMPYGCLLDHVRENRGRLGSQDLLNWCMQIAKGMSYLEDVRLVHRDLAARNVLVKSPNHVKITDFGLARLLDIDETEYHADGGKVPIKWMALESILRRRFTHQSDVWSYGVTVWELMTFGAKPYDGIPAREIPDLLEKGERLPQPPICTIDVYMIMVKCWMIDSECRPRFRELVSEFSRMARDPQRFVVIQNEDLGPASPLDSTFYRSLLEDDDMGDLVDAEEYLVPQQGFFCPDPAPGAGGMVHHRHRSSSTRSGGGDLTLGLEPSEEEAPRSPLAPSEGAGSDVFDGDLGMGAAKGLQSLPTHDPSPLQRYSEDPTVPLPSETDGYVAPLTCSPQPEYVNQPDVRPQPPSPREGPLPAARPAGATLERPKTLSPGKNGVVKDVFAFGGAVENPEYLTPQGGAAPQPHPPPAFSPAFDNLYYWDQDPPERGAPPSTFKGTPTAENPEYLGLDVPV
assay info: Cell proliferation assay (CellTiter-Glo), Ba/F3 HER2-YVMA
Type: cell-based
stated conditions: read-out: Ba/F3 HER2-YVMA cell proliferation IC50
reported endpoint: GI50

compound="C=CC(=O)N1CCN(c2ncc3ncnc(Nc4cc(C)c(Oc5ccn6ncnc6c5)cc4F)c3n2)CC1(C)C [Example 76]" result="0.1 to 0.5 µM"

Now consider the entry below.
Req: I have this compound here, C=CC(=O)N1CC=C(c2ccc3ncnc(Nc4ccc(Oc5ccn6ncnc6c5)c(C)c4)c3c2F)CC1 [Example 30] , and I need its recorded GI50.
Resp: 0.1 to 0.5 µM

----------
system under test: Ba/F3 HER2-YVMA cells (HER2-A775_G776insYVMA) (Homo sapiens, UniProt P04626, DUP772-775, cells depend on it)
assay info: Cell proliferation assay (CellTiter-Glo), Ba/F3 HER2-YVMA
Type: cell-based
stated conditions: read-out: Ba/F3 HER2-YVMA cell proliferation IC50
Here the recorded GI50 is given for each entry.

Answered examples (3):
compound=C=CC(=O)N1CCC=C(c2ccc3ncnc(Nc4ccc(Oc5ccn6ncnc6c5)c(C)c4)c3n2)C1 reported_endpoint=GI50 result="100 to 500 nM"
compound=C=CC(=O)N1CCC(c2ncc3ncnc(Nc4cc(C)c(Oc5ccn6ncnc6c5)cc4F)c3n2)=C[C@@H]1C reported_endpoint=GI50 result="< 100 nM"
compound=C=CC(=O)N1C[C@@H](C)N(c2ncc3ncnc(Nc4ccc(Oc5ccn6ncnc6c5)c(C)c4F)c3n2)C[C@H]1C reported_endpoint=GI50 result="100 to 500 nM"

Req: I have this compound here, C=CC(=O)N1CCC2(CCN(c3ncc4ncnc(Nc5ccc(Oc6ccn7ncnc7c6)c(C)c5F)c4n3)C2)C1 (stereo not shown) , and I need its recorded GI50.
Resp: 100 to 500 nM

Req: I have this compound here, "C=CC(=O)N1CC(c2ccc3ncnc(Nc4ccc(Oc5ccn6ncnc6c5)c(C)c4)c3n2)C1" , and I need its recorded GI50.
Resp: 100 to 500 nM

Req: I have this compound here, "C=CC(=O)N1CCN(c2ncc3ncnc(Nc4cc(C)c(Oc5ccn6ncnc6c5)cc4F)c3n2)[C@@H](C)C1" , and I need its recorded GI50.
Resp: < 100 nM

Req: I have this compound here, "C=CC(=O)N1CCN(c2ncc3ncnc(Nc4ccc(Oc5ccn6ncnc6c5)c(C(F)(F)F)c4F)c3n2)C[C@H]1C" , and I need its recorded GI50.
Resp: 100 to 500 nM

----------
system under test: Ba/F3 HER2-YVMA cells (HER2-A775_G776insYVMA) (Homo sapiens, UniProt P04626, DUP772-775, cells depend on it)
assay info: Cell proliferation assay (CellTiter-Glo), Ba/F3 HER2-YVMA
Assay type: cell-based
stated conditions: read-out: Ba/F3 HER2-YVMA cell proliferation IC50
reported endpoint: GI50

Answered examples (3):
molecule="C=CC(=O)N1C[C@H]2CC[C@@H]1CN2c1ncc2ncnc(Nc3ccc(Oc4ccn5ncnc5c4)c(C)c3F)c2n1 [Example 45]" reported_endpoint=GI50 result="< 0.1 µM"
molecule="C=CC(=O)N1CCC=C(c2ccc3ncnc(Nc4ccc(Oc5ccn6ncnc6c5)c(C)c4)c3n2)CC1 [Example 1]" reported_endpoint=GI50 result="< 0.1 µM"
molecule="Cc1cc(Nc2ncnc3ccc(N4CCN(C(=O)/C=C/CN(C)C)CC4)nc23)ccc1Oc1ccn2ncnc2c1 [Example 7]" reported_endpoint=GI50 result="< 0.1 µM"

Req: I have this molecule here, C=CC(=O)N1CC=C(c2ncc3ncnc(Nc4cc(C)c(Oc5ccn6ncnc6c5)cc4F)c3n2)CC1 [Example 38] , and I need its recorded GI50.
Resp: 0.1 to 0.5 µM

Req: I have this molecule here, C=CC(=O)N1CCN(c2ncc3ncnc(Nc4cc(C)c(Oc5ccn6ncnc6c5)cc4F)c3n2)[C@H](C)C1 [Example 34] , and I need its recorded GI50.
Resp: 0.1 to 0.5 µM

Req: I have this molecule here, C=CC(=O)N1CCN(c2ccc3ncnc(Nc4ccc(Oc5ccn6ncnc6c5)c(C)c4)c3c2F)CC1 [Example 29] , and I need its recorded GI50.
Resp: < 0.1 µM

Req: I have this molecule here, C=CC(=O)N1CC=C(c2ccc3ncnc(Nc4ccc(Oc5ccn6ccnc6c5)c(C)c4)c3n2)CC1 [Example 70] , and I need its recorded GI50.
Resp: < 0.1 µM

Recorded values, source patent US12037346B2.
